Test system: Escherichia coli TOP10
Test: shrunken log2 fold change of peptide-encoding DNA abundance (4.5 h post-induction vs induction); higher = less antimicrobial activity (less host growth inhibition)
Conditions: time post-induction: 4.5 h; library: site-saturation at positions 5, 18, 19, 20
measured_endpoint: shrunken log2 fold change

RRIRWRPPRLPRPRPRPIITPRP = -0.827
RRIRRRPPRLPRPRPRPHYGPRP = -0.178
RRIRPRPPRLPRPRPRPVVGPRP = 0.212
RRIRYRPPRLPRPRPRPPCEPRP = -0.468
RRIRRRPPRLPRPRPRPFTEPRP = -0.267
RRIRGRPPRLPRPRPRPNMWPRP = 0.274
RRIRLRPPRLPRPRPRPHWEPRP = 0.0215
RRIRPRPPRLPRPRPRPSWTPRP = -0.326

====

System: Escherichia coli TOP10
Assay: shrunken log2 fold change of peptide-encoding DNA abundance (4.5 h post-induction vs induction); higher = less antimicrobial activity (less host growth inhibition)
Settings: time post-induction: 4.5 h; library: site-saturation at positions 5, 18, 19, 20
# key: entry, value: shrunken log2 fold change
measured_endpoint: shrunken log2 fold change

RRIRWRPPRLPRPRPRPRQCPRP = 0.137
RRIRKRPPRLPRPRPRPLRKPRP = 0.968
RRIRDRPPRLPRPRPRPTDQPRP = 0.118
RRIRCRPPRLPRPRPRPVLWPRP = 0.136
RRIRFRPPRLPRPRPRPVREPRP = 0.269
RRIRRRPPRLPRPRPRPGLAPRP = 0.763
RRIRQRPPRLPRPRPRPTSEPRP = 0.015
RRIRFRPPRLPRPRPRPCNAPRP = -0.23
RRIRGRPPRLPRPRPRPRFEPRP = 0.881
RRIRARPPRLPRPRPRPPWEPRP = 0.558
RRIRGRPPRLPRPRPRPVGLPRP = 0.954
RRIRNRPPRLPRPRPRPVSQPRP = -0.0152
RRIRWRPPRLPRPRPRPFVKPRP = -0.753
RRIRSRPPRLPRPRPRPWGCPRP = 0.032
RRIRQRPPRLPRPRPRPHSRPRP = -0.17
RRIRSRPPRLPRPRPRPEMAPRP = 1.22
RRIRSRPPRLPRPRPRPWPWPRP = 0.0913
RRIRMRPPRLPRPRPRPDCAPRP = 1.95
RRIRHRPPRLPRPRPRPLITPRP = -0.324
RRIRQRPPRLPRPRPRPWIHPRP = -0.103
RRIRWRPPRLPRPRPRPCHDPRP = 0.0415
RRIRMRPPRLPRPRPRPSKYPRP = -0.166
RRIRTRPPRLPRPRPRPLYWPRP = -0.559
RRIRARPPRLPRPRPRPVNHPRP = -0.298
RRIRLRPPRLPRPRPRPFLLPRP = -0.47
RRIRYRPPRLPRPRPRPRTQPRP = 0.0444
RRIRMRPPRLPRPRPRPVSVPRP = 0.699
RRIRQRPPRLPRPRPRPSPDPRP = 0.262
RRIRKRPPRLPRPRPRPQHQPRP = 0.122
RRIRFRPPRLPRPRPRPMDRPRP = 0.0616
RRIRIRPPRLPRPRPRPNDWPRP = 0.0555
RRIRPRPPRLPRPRPRPCCEPRP = -0.116

====

# key: entry, value: shrunken log2 fold change
Tested on: Escherichia coli TOP10
Test: shrunken log2 fold change of peptide-encoding DNA abundance (4.5 h post-induction vs induction); higher = less antimicrobial activity (less host growth inhibition)
Conditions: time post-induction: 4.5 h; library: site-saturation at positions 5, 18, 19, 20
measured_endpoint: shrunken log2 fold change

RRIRKRPPRLPRPRPRPTHGPRP = 0.547
RRIRCRPPRLPRPRPRPPCDPRP = 0.242
RRIRKRPPRLPRPRPRPNHPPRP = 0.0844
RRIRNRPPRLPRPRPRPWPFPRP = 0.0256
RRIRERPPRLPRPRPRPTNTPRP = -0.697
RRIRFRPPRLPRPRPRPYNCPRP = -0.768
RRIRPRPPRLPRPRPRPVPQPRP = 0.446
RRIRLRPPRLPRPRPRPFFKPRP = -0.169

====

Tested on: Escherichia coli TOP10
Test: shrunken log2 fold change of peptide-encoding DNA abundance (4.5 h post-induction vs induction); higher = less antimicrobial activity (less host growth inhibition)
Conditions: time post-induction: 4.5 h; library: site-saturation at positions 5, 18, 19, 20
# key: entry, value: shrunken log2 fold change
measured_endpoint: shrunken log2 fold change

RRIRVRPPRLPRPRPRPRSSPRP = -0.244
RRIRIRPPRLPRPRPRPNICPRP = -0.147
RRIRCRPPRLPRPRPRPPPKPRP = 1.51
RRIRMRPPRLPRPRPRPQENPRP = 0.48
RRIRGRPPRLPRPRPRPCTIPRP = 0.166
RRIRSRPPRLPRPRPRPYMLPRP = -0.981
RRIRVRPPRLPRPRPRPRYRPRP = -0.0212
RRIRKRPPRLPRPRPRPTFHPRP = 0.136

====

System: Escherichia coli TOP10
Assay: shrunken log2 fold change of peptide-encoding DNA abundance (4.5 h post-induction vs induction); higher = less antimicrobial activity (less host growth inhibition)
Settings: time post-induction: 4.5 h; library: site-saturation at positions 5, 18, 19, 20
measured_endpoint: shrunken log2 fold change

RRIRFRPPRLPRPRPRPLTEPRP = -0.331
RRIRYRPPRLPRPRPRPELLPRP = -0.157
RRIRSRPPRLPRPRPRPAAHPRP = 0.154
RRIRSRPPRLPRPRPRPMWWPRP = 0.551
RRIRHRPPRLPRPRPRPWNMPRP = -0.14
RRIRYRPPRLPRPRPRPTVEPRP = 0.0629
RRIRMRPPRLPRPRPRPMCFPRP = 0.271
RRIRRRPPRLPRPRPRPSLCPRP = 1.05
RRIRPRPPRLPRPRPRPVSQPRP = -0.0764
RRIRRRPPRLPRPRPRPNMLPRP = -0.061
RRIRERPPRLPRPRPRPCYEPRP = -0.0528
RRIRNRPPRLPRPRPRPDPTPRP = 0.0817
RRIRFRPPRLPRPRPRPLNTPRP = -0.483
RRIRCRPPRLPRPRPRPWLSPRP = -0.215
RRIRARPPRLPRPRPRPPHMPRP = 0.661
RRIRTRPPRLPRPRPRPETMPRP = 0.338
RRIRHRPPRLPRPRPRPGNHPRP = -0.161
RRIRYRPPRLPRPRPRPKGHPRP = -0.145
RRIRERPPRLPRPRPRPLKVPRP = -0.0726
RRIRMRPPRLPRPRPRPGKTPRP = 0.769
RRIRDRPPRLPRPRPRPEYPPRP = -0.0367
RRIRHRPPRLPRPRPRPQSKPRP = -0.342
RRIRRRPPRLPRPRPRPMALPRP = 5.63e-05
RRIRPRPPRLPRPRPRPFNIPRP = -0.293
RRIRWRPPRLPRPRPRPVCIPRP = 0.12
RRIRSRPPRLPRPRPRPGDFPRP = 0.0535
RRIRNRPPRLPRPRPRPDPIPRP = -0.143
RRIRERPPRLPRPRPRPTQNPRP = 0.262
RRIRQRPPRLPRPRPRPKMKPRP = -0.08
RRIRGRPPRLPRPRPRPRTPPRP = 1.18
RRIRPRPPRLPRPRPRPAERPRP = 0.291
RRIRPRPPRLPRPRPRPQAFPRP = -0.00213

====

System: Escherichia coli TOP10;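 note: peptides expressed intracellularly from a pBAD plasmid library in pooled LB shake-flask culture, induced with 0.3% L-arabinose, DNA abundance read by NGS, three biological replicates, DESeq2 with apeglm shrinkage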
Experiment: shrunken log2 fold change of peptide-encoding DNA abundance (4.5 h post-induction vs induction); higher = less antimicrobial activity (less host growth inhibition)
Settings: time post-induction: 4.5 h; library: site-saturation at positions 5, 18, 19, 20
measured_endpoint: shrunken log2 fold change

RRIRPRPPRLPRPRPRPCTYPRP = -0.253
RRIRTRPPRLPRPRPRPIYEPRP = -0.246
RRIRERPPRLPRPRPRPMEYPRP = -0.00776
RRIRPRPPRLPRPRPRPHIVPRP = -0.481
RRIRRRPPRLPRPRPRPAVHPRP = 0.321
RRIRKRPPRLPRPRPRPPPQPRP = 1.02
RRIRQRPPRLPRPRPRPNQEPRP = -0.0578
RRIRIRPPRLPRPRPRPFHKPRP = -0.196
RRIRPRPPRLPRPRPRPCDIPRP = 0.024
RRIRFRPPRLPRPRPRPQMFPRP = -0.103
RRIRWRPPRLPRPRPRPCCHPRP = -0.169
RRIRTRPPRLPRPRPRPDYQPRP = -0.0545
RRIRFRPPRLPRPRPRPVLIPRP = -0.17
RRIRLRPPRLPRPRPRPCHLPRP = 0.0143
RRIRERPPRLPRPRPRPPSWPRP = -0.2
RRIRYRPPRLPRPRPRPGIVPRP = -0.384
RRIRWRPPRLPRPRPRPDHWPRP = 0.109
RRIRARPPRLPRPRPRPVPNPRP = -0.0263
RRIRSRPPRLPRPRPRPKFHPRP = -0.441
RRIRHRPPRLPRPRPRPRWIPRP = -0.108
RRIRTRPPRLPRPRPRPEACPRP = -0.1
RRIRGRPPRLPRPRPRPTVLPRP = 0.564
RRIRVRPPRLPRPRPRPIEFPRP = 0.0379
RRIRYRPPRLPRPRPRPNDDPRP = -0.0641
RRIRNRPPRLPRPRPRPDTQPRP = -0.149
RRIRARPPRLPRPRPRPCIRPRP = -0.365
RRIRVRPPRLPRPRPRPTDNPRP = -0.363
RRIRHRPPRLPRPRPRPGCCPRP = 0.0396
RRIRCRPPRLPRPRPRPPEMPRP = 0.67
RRIRDRPPRLPRPRPRPRFGPRP = 0.206
RRIRTRPPRLPRPRPRPCAAPRP = 0.0451
RRIRPRPPRLPRPRPRPPSGPRP = 0.527
RRIRFRPPRLPRPRPRPPFHPRP = -0.231
RRIRSRPPRLPRPRPRPAHPPRP = 0.427
RRIRDRPPRLPRPRPRPIANPRP = 0.274
RRIRDRPPRLPRPRPRPNRGPRP = -0.0177
RRIRVRPPRLPRPRPRPPVMPRP = -0.105
RRIRCRPPRLPRPRPRPYAEPRP = -0.0578
RRIRFRPPRLPRPRPRPPCRPRP = 0.172
RRIRKRPPRLPRPRPRPTNFPRP = 0.111
RRIRGRPPRLPRPRPRPFHLPRP = -0.391
RRIRTRPPRLPRPRPRPEGCPRP = 0.214
RRIRPRPPRLPRPRPRPEFKPRP = 0.26
RRIRRRPPRLPRPRPRPSHCPRP = -0.041
RRIRLRPPRLPRPRPRPIRYPRP = -0.272
RRIRTRPPRLPRPRPRPNRCPRP = -0.189
RRIRIRPPRLPRPRPRPWWRPRP = -0.0114
RRIRRRPPRLPRPRPRPNIKPRP = 0.153
RRIRNRPPRLPRPRPRPSFVPRP = -0.266
RRIRYRPPRLPRPRPRPGDGPRP = 0.0695
RRIRHRPPRLPRPRPRPAKKPRP = 0.0694
RRIRERPPRLPRPRPRPFDCPRP = -0.0657
RRIRKRPPRLPRPRPRPQIGPRP = -0.0295
RRIRKRPPRLPRPRPRPDYKPRP = -0.208
RRIRYRPPRLPRPRPRPQNSPRP = -0.00968
RRIRGRPPRLPRPRPRPTDVPRP = 0.307
RRIRNRPPRLPRPRPRPPFYPRP = -0.403
RRIRWRPPRLPRPRPRPPHDPRP = 0.738
RRIRRRPPRLPRPRPRPWVMPRP = -0.123
RRIRHRPPRLPRPRPRPYRKPRP = -1.23
RRIRSRPPRLPRPRPRPKRGPRP = 0.0665
RRIRLRPPRLPRPRPRPFRIPRP = 0.0742
RRIRPRPPRLPRPRPRPGRIPRP = 0.0185
